- TESTED_ON: panel of more than 300 wild-type and mutant kinases (313 kinase panel) (Homo sapiens, UniProt P36507)
- METHOD_DESCRIPTION: Kinase profiling in a biochemical assay panel (mobility shift assays and ELISA), %-inhibition at 1 μM; selectivity entropy
- MEASUREMENT_SETUP: kinase MAP2K2; compound at 1 μM
In this section we review reported %-inhibition of MAP2K2 values for a set of compounds.
RECORDED_ENDPOINT: %-inhibition of MAP2K2 (%)

smiles_notation=CO[C@H]1C[C@@H]2CC[C@@H](C)[C@@](O)(O2)C(=O)C(=O)N2CCCC[C@H]2C(=O)O[C@H]([C@H](C)C[C@@H]2CC[C@@H](OC(=O)C(C)(CO)CO)[C@H](OC)C2)CC(=O)[C@H](C)/C=C(\C)[C@@H](O)[C@@H](OC)C(=O)[C@H](C)C[C@H](C)/C=C/C=C/C=C/1C unit_label=% meas_value=13
smiles_notation=Cc1ccc(Nc2nccc(N(C)c3ccc4c(C)n(C)nc4c3)n2)cc1S(N)(=O)=O unit_label=% meas_value=1.87
smiles_notation=C[C@@H](Oc1cc(-c2cnn(C3CCNCC3)c2)cnc1N)c1c(Cl)ccc(F)c1Cl unit_label=% meas_value=13
smiles_notation=N#CC[C@H](C1CCCC1)n1cc(-c2ncnc3[nH]ccc23)cn1 unit_label=% meas_value=12
smiles_notation=CO[C@H]1C[C@@H]2CC[C@@H](C)[C@@](O)(O2)C(=O)C(=O)N2CCCC[C@H]2C(=O)O[C@H]([C@H](C)C[C@@H]2CC[C@@H](OCCO)[C@H](OC)C2)CC(=O)[C@H](C)/C=C(\C)[C@@H](O)[C@@H](OC)C(=O)[C@H](C)C[C@H](C)/C=C/C=C/C=C/1C unit_label=% meas_value=11
